Values were extracted from the supplement of paper PMC10627819.

# Test system: S. pneumoniae D39V;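 also: first quartile when negative (synergy) and third quartile when positive (antagonism)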
# test_method_notes: Bliss interaction score (quartile over a dose matrix) (fitness difference); higher = more antagonism (negative = synergy)
reported_metric: Bliss interaction score
Please give only the number in your answer, with no unit.

Query: Which measured Bliss interaction score value corresponds to CC(=O)NC[C@H]1CN(c2ccc(N3CCOCC3)c(F)c2)C(=O)O1 [Linezolid] + CC[C@H]1OC(=O)[C@H](C)C(=O)[C@H](C)[C@@H](O[C@@H]2O[C@H](C)C[C@H](N(C)C)[C@H]2O)[C@](C)(OC)C[C@@H](C)C(=O)[C@H](C)[C@H]2N(CCCCn3cnc(-c4cccnc4)c3)C(=O)O[C@]12C [Telithromycin] ?
Reply: -0.0921

Query: Which measured Bliss interaction score value corresponds to CN[C@@H]1[C@H](O)[C@H](NC)[C@H]2O[C@@]3(O)C(=O)C[C@@H](C)O[C@H]3O[C@@H]2[C@H]1O [Spectinomycin] + CN[C@H](CC(C)C)C(=O)N[C@H]1C(=O)N[C@@H](CC(N)=O)C(=O)N[C@H]2C(=O)N[C@H]3C(=O)N[C@H](C(=O)N[C@H](C(=O)O)c4cc(O)cc(O)c4-c4cc3ccc4O)[C@H](O)c3ccc(c(Cl)c3)Oc3cc2cc(c3O[C@@H]2O[C@H](CO)[C@@H](O)[C@H](O)[C@H]2O[C@H]2C[C@](C)(N)[C@H](O)[C@H](C)O2)Oc2ccc(cc2Cl)[C@H]1O [Vancomycin] ?
Reply: -0.0797

Query: Which measured Bliss interaction score value corresponds to CN[C@@H]1[C@H](O)[C@H](NC)[C@H]2O[C@@]3(O)C(=O)C[C@@H](C)O[C@H]3O[C@@H]2[C@H]1O [Spectinomycin] + Cn1nnc(-c2ccc(-c3ccc(N4C[C@H](CO)OC4=O)cc3F)cn2)n1 [Tedizolid] ?
Reply: -0.0885

* * *

# Test system: S. pneumoniae D39V;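 also: first quartile when negative (synergy) and third quartile when positive (antagonism)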
# test_method_notes: Bliss interaction score (quartile over a dose matrix) (fitness difference); higher = more antagonism (negative = synergy)
reported_metric: Bliss interaction score
Please give only the number in your answer, with no unit.

Query: Which measured Bliss interaction score value corresponds to CN[C@@H]1[C@H](O[C@H]2[C@H](O[C@H]3[C@H](O)[C@@H](O)[C@H](N=C(N)N)[C@@H](O)[C@@H]3N=C(N)N)O[C@@H](C)[C@]2(O)C=O)O[C@@H](CO)[C@H](O)[C@H]1O [Streptomycin] + Oc1cc(Cl)ccc1Oc1ccc(Cl)cc1Cl [Triclosan] ?
Reply: 0.0606

Query: Which measured Bliss interaction score value corresponds to CC[C@H]1OC(=O)[C@H](C)[C@@H](O[C@H]2C[C@@](C)(OC)[C@@H](O)[C@H](C)O2)[C@H](C)[C@@H](O[C@@H]2O[C@H](C)C[C@H](N(C)C)[C@H]2O)[C@](C)(O)C[C@@H](C)C(=O)[C@H](C)[C@@H](O)[C@]1(C)O [Erythromycin] + CN[C@@H]1[C@H](O[C@H]2[C@H](O[C@H]3[C@H](O)[C@@H](O)[C@H](N=C(N)N)[C@@H](O)[C@@H]3N=C(N)N)O[C@@H](C)[C@]2(O)C=O)O[C@@H](CO)[C@H](O)[C@H]1O [Streptomycin] ?
Reply: -0.0481

Query: Which measured Bliss interaction score value corresponds to CC(=O)NC[C@H]1CN(c2ccc(N3CCOCC3)c(F)c2)C(=O)O1 [Linezolid] + CN[C@@H]1[C@H](O[C@H]2[C@H](O[C@H]3[C@H](O)[C@@H](O)[C@H](N=C(N)N)[C@@H](O)[C@@H]3N=C(N)N)O[C@@H](C)[C@]2(O)C=O)O[C@@H](CO)[C@H](O)[C@H]1O [Streptomycin] ?
Reply: -0.112

Query: Which measured Bliss interaction score value corresponds to CC(=O)NC[C@H]1CN(c2ccc(N3CCOCC3)c(F)c2)C(=O)O1 [Linezolid] + COc1ccc(C[C@H](N)C(=O)N[C@H]2[C@@H](O)[C@H](n3cnc4c(N(C)C)ncnc43)O[C@@H]2CO)cc1 [Puromycin] ?
Reply: -0.132

Query: Which measured Bliss interaction score value corresponds to CC(=O)NC[C@H]1CN(c2ccc(N3CCOCC3)c(F)c2)C(=O)O1 [Linezolid] + CCN(CC)CCOC(=O)c1ccc(N)cc1 [Procaine] ?
Reply: 0.0684

Query: Which measured Bliss interaction score value corresponds to CC(=O)NC[C@H]1CN(c2ccc(N3CCOCC3)c(F)c2)C(=O)O1 [Linezolid] + Cc1onc(-c2ccccc2)c1C(=O)N[C@@H]1C(=O)N2[C@@H]1SC(C)(C)[C@@H]2C(=O)O [Oxacillin] ?
Reply: 0.136

Query: Which measured Bliss interaction score value corresponds to CN[C@@H]1[C@H](O[C@H]2[C@H](O[C@H]3[C@H](O)[C@@H](O)[C@H](N=C(N)N)[C@@H](O)[C@@H]3N=C(N)N)O[C@@H](C)[C@]2(O)C=O)O[C@@H](CO)[C@H](O)[C@H]1O [Streptomycin] + Cc1cc(NS(=O)(=O)c2ccc(N)cc2)no1 [Sulfamethoxazol] ?
Reply: 0.0624
